Hello, the source for this data is PubChem BioAssay, in case you need it.

test: calcium flux enhancement in mu-opioid HEK293 cells, confirmation, counter-screen for TRPC4 allosteric potentiator project, cell-based, HEK293 mu-opioid receptor line (AID 449724); conditions: Fluo-4 calcium flux, at 10 µM; compound added before EC20 DAMGO stimulus unless noted;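 also: HEK293 cells carrying mu-opioid receptor only with no TRPC4 channel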
Activity calls are given as the source filed them.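 The calls were made as follows: active = calcium signal rise more than 3 SD above the low-dose agonist control mean, in both duplicate plates and the primary screen; inactive = the rest.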

{"Smi": "C=CCOC(=O)C1=C(C)OC(N)=C(C#N)[C@@]12C(=O)N(CC(N)=O)c1ccccc12", "outcome": "inactive"}
{"Smi": "CCOC(=O)C1(CCc2ccccc2)CCN(Cc2csc(C(C)=O)c2)CC1", "outcome": "inactive"}
{"Smi": "CCOC(=O)C1(CCc2ccccc2)CCN(Cc2ccc(NC(C)=O)cc2)CC1", "outcome": "inactive"}
